Test system: LOX IMVI melanoma
protocol_notes: NCI-60 one-dose screen, 48 h (100 = growth as untreated, 0 = no growth, -100 = all killed)
conditions_used: 10 µM
About 83,000 compounds went through this panel and 20% of them were active in at least one assay; those are over-represented in the sample as a whole.
Reported growth values for the following compounds.

# compound, quantity_unit, growth
measured = [
    ("OC(CCN1CCCCC1)(c1ccccc1)c1ccccc1", "%", 97.2),
    ("COc1cc(C(=O)O)c(O)c(C(C)(C)C)c1", "%", 98.8),
    ("C=COC(=O)C(C)(C)C", "%", 96.4),
    ("CC1CCC(C(C)(C)[N+](C)(C)C)CC1 (stereo unspecified)", "%", 102),
    ("CC(C)Sc1ncnc2nc[nH]c12", "%", 100),
    ("CCOC(=O)c1ccc(NC(=O)Nc2nccs2)cc1", "%", 11.9),
    ("CC(=O)CSc1ncnc2nc[nH]c12", "%", 42.2),
    ("Nc1nnc2cc(F)ccc2n1", "%", 96.3),
    ("CCOC(=O)C(CCC#N)(CCC#N)C(=O)OCC", "%", 111),
    ("Cc1cccc(-[n+]2noc(N)n2)c1", "%", 46.9),
    ("NC(=O)c1cc2c3ccccc3ccn2c1-c1ccccc1", "%", 20),
]
